Quick list: pKi per entry.
# Test Target: human σ1 receptor (Homo sapiens, UniProt Q99720)
# Sequence (Q99720 whole entry): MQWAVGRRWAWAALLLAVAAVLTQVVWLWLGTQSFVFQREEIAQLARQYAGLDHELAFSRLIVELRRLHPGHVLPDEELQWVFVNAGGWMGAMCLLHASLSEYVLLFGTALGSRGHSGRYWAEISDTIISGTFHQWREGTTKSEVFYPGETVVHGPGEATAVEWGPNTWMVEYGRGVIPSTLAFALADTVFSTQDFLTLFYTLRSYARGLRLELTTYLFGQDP
# Assay Info: biochemical
# Assay type: binding
# Test Settings: read-out: μ and σ1 dual binding
pKi: −log10 of the molar value. Where a name gives a salt, the structure may show the parent alone.

Compound | pKi
COc1cccc(CCN2CCC3(CC2)CN(c2ccccc2)C(=O)CO3)c1 | > 6.30
CC(=O)Nc1cccc(CN2CC3(CCN(CCc4ccccc4)CC3)OCC2=O)c1 [Example 249, hydrochloride] | < 6.30
CC1OC2(CCN(CCc3ccccc3)CC2)CN(c2cccc(C(=O)O)c2)C1=O (centres unmarked) | < 6.30
Oc1ccccc1CCN1CCC2(CC1)CN(Cc1ccccc1)CCO2 | > 7.00
O=C1COC2(CCN(CCc3cccc(O)c3)CC2)CN1c1ccccc1 | > 6.30
CC1OC2(CCN(CCC(=O)N(C)c3ccccc3)CC2)CN(c2ccccc2)C1=O (centres unmarked) [Example 100, hydrochloride] | > 6.30
Nc1cccc(CN2CC3(CCN(CCc4ccccc4)CC3)OCC2=O)c1 [Example 233, hydrochloride] | > 6.30
CC1OC2(CCN(CCc3cccc(C#N)c3)CC2)CN(c2ccccc2)C1=O (centres unmarked) [Example 75, hydrochloride] | > 7.00
